tested-on: REFACTO® factor VIII-like polypeptide (amino acids 1-743 and 1638 through 2332 of human factor VIII) (human) (UniProt P00451)
Sequence (P00451 20-762, chain 1 of 2): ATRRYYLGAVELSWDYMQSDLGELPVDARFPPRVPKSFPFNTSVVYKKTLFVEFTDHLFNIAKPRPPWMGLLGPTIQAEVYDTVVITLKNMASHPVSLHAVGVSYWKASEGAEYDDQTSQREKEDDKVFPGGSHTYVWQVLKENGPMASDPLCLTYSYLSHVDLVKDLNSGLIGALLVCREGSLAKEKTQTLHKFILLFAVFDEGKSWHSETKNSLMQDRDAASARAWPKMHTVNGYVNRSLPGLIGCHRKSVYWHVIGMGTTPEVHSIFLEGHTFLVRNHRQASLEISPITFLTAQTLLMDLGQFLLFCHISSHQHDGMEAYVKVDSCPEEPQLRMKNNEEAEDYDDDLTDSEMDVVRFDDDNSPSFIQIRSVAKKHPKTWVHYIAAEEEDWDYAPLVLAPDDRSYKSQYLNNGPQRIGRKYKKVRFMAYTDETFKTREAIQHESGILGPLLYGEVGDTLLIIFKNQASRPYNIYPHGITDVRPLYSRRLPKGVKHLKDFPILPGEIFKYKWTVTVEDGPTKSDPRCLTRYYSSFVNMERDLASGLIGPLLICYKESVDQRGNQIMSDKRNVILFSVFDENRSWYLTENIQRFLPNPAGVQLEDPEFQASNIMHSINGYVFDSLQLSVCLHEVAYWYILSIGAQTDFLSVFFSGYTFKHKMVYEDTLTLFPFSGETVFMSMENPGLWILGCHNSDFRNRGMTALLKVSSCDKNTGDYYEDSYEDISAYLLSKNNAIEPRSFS
Sequence (P00451 1657-2351, chain 2 of 2): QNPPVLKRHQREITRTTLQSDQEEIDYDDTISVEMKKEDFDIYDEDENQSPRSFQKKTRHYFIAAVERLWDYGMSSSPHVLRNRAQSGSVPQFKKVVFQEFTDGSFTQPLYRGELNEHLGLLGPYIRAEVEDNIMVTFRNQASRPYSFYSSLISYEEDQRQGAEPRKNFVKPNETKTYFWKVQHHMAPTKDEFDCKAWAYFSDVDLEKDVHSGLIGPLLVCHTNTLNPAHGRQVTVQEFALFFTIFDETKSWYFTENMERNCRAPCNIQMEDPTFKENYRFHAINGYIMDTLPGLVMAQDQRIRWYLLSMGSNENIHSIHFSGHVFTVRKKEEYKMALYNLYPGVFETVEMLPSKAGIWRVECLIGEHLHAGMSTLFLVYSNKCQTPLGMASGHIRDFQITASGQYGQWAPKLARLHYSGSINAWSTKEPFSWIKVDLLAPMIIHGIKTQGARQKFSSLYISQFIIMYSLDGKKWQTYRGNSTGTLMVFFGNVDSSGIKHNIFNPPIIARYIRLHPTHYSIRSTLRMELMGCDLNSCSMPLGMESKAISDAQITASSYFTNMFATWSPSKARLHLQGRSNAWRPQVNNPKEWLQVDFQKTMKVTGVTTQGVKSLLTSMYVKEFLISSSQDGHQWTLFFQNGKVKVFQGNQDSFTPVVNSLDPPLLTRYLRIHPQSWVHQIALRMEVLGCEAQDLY
assay-procedure: phage ELISA
The entries below are paired with their reported R (ratio of the ELISA score with target present to the ELISA score without target).
Form rule: numeric answer, no unit written next to it.

1. RLCSWISPCSA [TN7 isolate D04 (phage-displayed peptide, SEQ ID NO: 7)] = 6
2. HPCGSWLHPCAA [TN8 isolate 04 (phage-displayed peptide, SEQ ID NO: 12)] = 6
3. FCWVFPFNHCS [TN9 isolate 12 (phage-displayed peptide, SEQ ID NO: 28)] = 18

Ask | What measured R (ratio of the ELISA score with target present to the ELISA score without target) goes with HLCGAWFRPCDA [TN8 isolate 02 (phage-displayed peptide, SEQ ID NO: 16)] ?
Reply | 6
